# assayed_target: human Fc (human)
# assay_remarks: ELISA, negative control
property_name: optical density (OD)
Please give a number only; it is taken to be in OD.

Record excerpt, results attached:
375_B12 (antibody, V domains shown) VH: EVQLLESGGGLVQPGGSLRLSCAASGFTFDSYSMNWVRQAPGKGLEWVAGINYNGGYKSYADSVKGRFTISRDNSKNTLYLQMNSLRAEDTAVYYCARGANWHDTALDYWGQGTLVTVSS VL: DIQMTQSPSSLSASVGDRVTITCRASQSIVTYLNWYQQKPGKAPKLLIYAATSRASGVPSRFSGSGSGTDFTLTISSLQPEDFATYYCQQSYDTPLTFGGGTKVEIK
0.223
371_F07 (antibody, V domains shown) VH: EVQLLESGGGLVQPGGSLRLSCAASGFTFSSYGMHWVRQAPGKGLEWVAGINYNGGYTSYADSVKGRFTISRDNSKNTLYLQMNSLRAEDTAVYYCARAATWHDTHLDYWGQGTLVTVSS VL: DIQMTQSPSSLSASVGDRVTITCRASQSILTYLNWYQQKPGKAPKLLIYAATSLASGVPSRFSGSGSGTDFTLTISSLQPEDFATYYCQQSDSNPLTFGGGTKVEIK
0.425
375_G10 (antibody, V domains shown) VH: EVQLLESGGGLVQPGGSLRLSCAASGFTFSSYGMNWVRQAPGKGLEWVSSINYNGGYKSYADSVKGRFTISRDNSKNTLYLQMNSLRAEDTAVYYCARSATWHDTHLDYWGQGTLVTVSS VL: DIQMTQSPSSLSASVGDRVTITCRASQSIVTYLNWYQQKPGKAPKLVIYAATSRHSGVPSRFSGSGSGTDFTLTISSLQPEDFATYYCQQSYDTPLTFGGGTKVEIK
0.175

Here is the next item to consider.
Give a short answer stating reported optical density for 374_F07 (antibody, V domains shown) VH: EVQLLESGGGLVQPGGSLRLSCAASGFTFDSYSMNWVRQAPGKGLEWVASINYNGGYTGYADSVKGRFTISRDNSKNTLYLQMNSLRAEDTAVYYCARGANWHDTHLDYWGQGTLVTVSS VL: DIQMTQSPSSLSASVGDRVTITCRASQSILSYLNWYQQKPGKAPKLVIYAVTSLASGVPSRFSGSGSGTDFTLTISSLQPEDFATYYCQQSYESPLTFGGGTKVEIK .
0.176
